# testSystem: LASV Pinneo (lineage I) glycoprotein (Lassa virus, strain Pinneo)
# experimentDescription: cell-based or functional assay
Quick reference for IC80 (neutralization) among some binders
The reply should contain only the number, in µg/mL.

Would you please look over these solved cases?
9.8A (antibody, V domains shown) VH: EVQLVQSGGRLVQPGGSLRLSCVASGFTFSSHAMSWVRQAPGKGLEWVSGFSGSSGTTKYADSVKGRFTISRDNSKKTLYLQMNSLRAEDTAVYYCAKGFSPFRGVQFPYFDYWGQGTLVTVSS VL: DIVMTQSPSTLSASVGDRVTITCRASQSIDRWLAWYQQKPGKAPKLLIYQASSLERGVPSRFSGSGSGTEFTLTISSLQPDDFATYYCQQYNGYPLTFGGGTKVEIKR    2.59
37.2D (antibody, V domains shown) VH: EVQLVQSGAEVKKPGASVKVSCKASGYTFTKYGISWVRQAPGQGLEWMGWISAFNGYTRYGQRFQGKVTMTTDTSTNTASLEVRTLTSNDTAVYYCARQYPDQYSSSGWPRLFAMDVWGQGTTVIVSP VL: ETTLTQSPATLSVSPGETATLSCRASQNVINNLAWYQQKPGQAPRLLIYGASTRATGIPARFSGSGSGTEFTLTISSMQSEDFAVYYCQQYNDWPRSFGQGTRLDIRR    1.86

Input line: Identify measured IC80 (neutralization) corresponding to 8.11G (antibody, V domains shown) VH: QVQLQESGPGLVKPSETLSLTCSISGVSTRNYYWSWIRQSPGKGLEWIGYIFNIGTTNYNPSLKSRLTISVDTSKNQFSLKITSVTAADTAVYYCASGFEYGDYTFDYWGQGTPVTVSS VL: EIVLTQSPATLSVSPGGRASLSCRASQSIGDKLSWYQQKPGQAPRLVIYGAYTRATDISPRFSGSRSGTDFNLTISRMQSGDFAVYFCQQYENWPRTFGQGTKLEIKR
Output line: 10.5
